tested on: γ-secretase; experiment: Cellular γ-secretase assay (inhibition of Aβ42 secretion, AlphaLisa); type: cell-based; conditions: human neuroglioma H4 cells overexpressing human APP695 Swedish double mutation, 24 hr compound incubation
pEC50: −log10 of the molar value.
reported_property: pEC50

COc1cc(Nc2nc3n(n2)CCCCN3c2ccc(F)c(F)c2)ccc1-n1cnc(C)n1 7.45

1: COc1cc(Nc2nc3n(n2)CCCN3c2cc(F)cc(F)c2)ccc1-n1cnc(C)n1
2: Cc1ncn(-c2ccc(Nc3nc4n(n3)CCCN4c3ccc(F)c(F)c3)cc2F)n1
Of 1 and 2 , whose reported pEC50 is numerically smaller? Response format: the label of the selected entry.
2
